B1: CPEB3 Ribozyme (parent)
chain: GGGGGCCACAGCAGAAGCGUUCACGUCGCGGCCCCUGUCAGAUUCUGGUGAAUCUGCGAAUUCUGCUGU

- Variants of: B1
- assay_notes: self-cleavage, relative activity (ratio to wild type); higher = more cleavage; co-transcriptional
readout_kind: self-cleavage

{"columns": ["variant_label", "readout_kind", "reported_result"],
 "data": [
  ["A23U C39A", "self-cleavage", 0.87],
  ["G4U A42G", "self-cleavage", 0.655],
  ["A16C U46A", "self-cleavage", 0.51],
  ["G31C C63U", "self-cleavage", 0.251],
  ["C22U C45A", "self-cleavage", 0.33],
  ["G4U C54A", "self-cleavage", 0.289],
  ["G14A G19C", "self-cleavage", 0.106],
  ["G11A U38A", "self-cleavage", 0.684],
  ["U36G G56A", "self-cleavage", 0.246],
  ["C29U U64C", "self-cleavage", 0.371],
  ["U21G A23U", "self-cleavage", 0.483],
  ["A40U A51U", "self-cleavage", 0.61],
  ["G4A U44C", "self-cleavage", 0.679],
  ["C34A A52C", "self-cleavage", 0.597],
  ["C12A A51G", "self-cleavage", 0.805],
  ["A23U G68C", "self-cleavage", 1.01],
  ["G17C U36G", "self-cleavage", 0.163],
  ["A52C U61C", "self-cleavage", 0.759],
  ["G30U C33A", "self-cleavage", 0.233],
  ["A15U G37U", "self-cleavage", 0.176],
  ["A15U C29A", "self-cleavage", 0.245],
  ["C39G U49C", "self-cleavage", 0.875],
  ["A8C C63A", "self-cleavage", 0.76],
  ["G17A C57G", "self-cleavage", 0.227],
  ["C24A A59U", "self-cleavage", 0.267],
  ["G25U G68C", "self-cleavage", 0.225],
  ["G5A G25C", "self-cleavage", 0.137],
  ["C7A G25C", "self-cleavage", 0.144],
  ["C34G U44C", "self-cleavage", 0.578],
  ["C24U C66A", "self-cleavage", 0.331],
  ["U62C U64G", "self-cleavage", 0.489],
  ["C32A", "self-cleavage", 0.866],
  ["C29U C54U", "self-cleavage", 0.448],
  ["G25U U46C", "self-cleavage", 0.179],
  ["C7A U21G", "self-cleavage", 0.077]
]}

These measurements were taken from the RNAGym collection of RNA variant scans (doi:10.7554/elife.80360).
